- testSystem: T1, formyl peptide receptor 2 (FPR2) (UniProt P25090 1-351, limits assumed)
- T1 sequence (looked up): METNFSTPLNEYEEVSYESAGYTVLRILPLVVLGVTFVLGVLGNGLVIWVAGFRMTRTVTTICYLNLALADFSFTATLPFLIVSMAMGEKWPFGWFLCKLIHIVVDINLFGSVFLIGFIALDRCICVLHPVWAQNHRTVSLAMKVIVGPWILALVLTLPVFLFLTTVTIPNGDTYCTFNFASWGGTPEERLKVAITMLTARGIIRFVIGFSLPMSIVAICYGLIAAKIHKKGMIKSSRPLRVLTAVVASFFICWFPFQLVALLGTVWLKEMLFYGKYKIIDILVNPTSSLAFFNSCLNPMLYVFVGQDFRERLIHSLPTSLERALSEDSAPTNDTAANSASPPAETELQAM
- protocolNotes: cell-based or functional assay
assayEndpoint: EC50 for [Ca2+]

# annotated cases, reported EC50 for [Ca2+] shown
1. MKYKPM (HELM PEPTIDE1{M.K.Y.K.P.[dM].[am]}$$$$V2.0; N-terminus assumed; SMILES CSCC[C@H](N)C(=O)N[C@@H](CCCCN)C(=O)N[C@@H](Cc1ccc(O)cc1)C(=O)N[C@@H](CCCCN)C(=O)N1CCC[C@H]1C(=O)N[C@H](CCSC)C(N)=O) [peptide of SEQ ID NO 70]: < 10 nM
2. RMRYWYM (HELM PEPTIDE1{[ac].R.M.R.Y.W.Y.[dM].[am]}$$$$V2.0; SMILES CSCC[C@H](NC(=O)[C@H](CCCNC(=N)N)NC(C)=O)C(=O)N[C@@H](CCCNC(=N)N)C(=O)N[C@@H](Cc1ccc(O)cc1)C(=O)N[C@@H](Cc1c[nH]c2ccccc12)C(=O)N[C@@H](Cc1ccc(O)cc1)C(=O)N[C@H](CCSC)C(N)=O) [peptide of SEQ ID NO 82]: < 10 nM
3. PMRYKYM (HELM PEPTIDE1{[CCCC(=O)[*:2]].P.M.R.Y.K.Y.[dM].[am]}$$$$V2.0; SMILES CCCC(=O)N1CCC[C@H]1C(=O)N[C@@H](CCSC)C(=O)N[C@@H](CCCNC(=N)N)C(=O)N[C@@H](Cc1ccc(O)cc1)C(=O)N[C@@H](CCCCN)C(=O)N[C@@H](Cc1ccc(O)cc1)C(=O)N[C@H](CCSC)C(N)=O) [peptide of SEQ ID NO 47]: < 10 nM
4. RMRYKVM (HELM PEPTIDE1{R.M.R.Y.K.V.[dM].[am]}$$$$V2.0; N-terminus assumed; SMILES CSCC[C@H](NC(=O)[C@@H](N)CCCNC(=N)N)C(=O)N[C@@H](CCCNC(=N)N)C(=O)N[C@@H](Cc1ccc(O)cc1)C(=O)N[C@@H](CCCCN)C(=O)N[C@H](C(=O)N[C@H](CCSC)C(N)=O)C(C)C) [peptide of SEQ ID NO 5]: < 10 nM

// switching to the query binder
Name the recorded EC50 for [Ca2+] for RMRYWPM (HELM PEPTIDE1{R.M.R.Y.W.P.[dM].[am]}$$$$V2.0; N-terminus assumed; SMILES CSCC[C@H](NC(=O)[C@@H](N)CCCNC(=N)N)C(=O)N[C@@H](CCCNC(=N)N)C(=O)N[C@@H](Cc1ccc(O)cc1)C(=O)N[C@@H](Cc1c[nH]c2ccccc12)C(=O)N1CCC[C@H]1C(=O)N[C@H](CCSC)C(N)=O) [peptide of SEQ ID NO 106] .
< 10 nM

Cited source: patent US20250361268A1
